Molecular target: T1, Murine B7-H4 ECD-Flag-His10 (monomeric) (mouse, UniProt Q7TSP5 25-257)
T1 construct: extracellular domain; also called FlagHis10 murine B7-H4
T1 sequence (looked up): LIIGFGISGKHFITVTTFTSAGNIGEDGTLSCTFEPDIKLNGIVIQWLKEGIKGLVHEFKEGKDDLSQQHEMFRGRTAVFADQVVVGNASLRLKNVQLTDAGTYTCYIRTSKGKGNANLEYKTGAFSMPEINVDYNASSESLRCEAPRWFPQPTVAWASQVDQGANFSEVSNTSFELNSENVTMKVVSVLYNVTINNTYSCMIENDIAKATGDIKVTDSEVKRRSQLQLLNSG
Assay: Octet BLI, hIgG1 on Protein G (n = 1)
Provide the recorded kon for the entries that follow.
Answers are plain numbers, in M⁻¹ s⁻¹.

ZY0EQD-E02 human IgG1 (antibody, V domains shown) VH: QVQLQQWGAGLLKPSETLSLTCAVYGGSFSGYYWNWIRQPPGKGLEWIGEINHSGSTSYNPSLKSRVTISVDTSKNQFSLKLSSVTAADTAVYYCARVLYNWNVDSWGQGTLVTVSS VL: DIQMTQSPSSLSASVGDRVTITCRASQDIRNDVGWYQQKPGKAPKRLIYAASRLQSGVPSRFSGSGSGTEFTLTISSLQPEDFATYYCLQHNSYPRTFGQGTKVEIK: 341000
ZY0EP0-C07 human IgG1 (antibody, V domains shown, also called ZY0EPO-C07) VH: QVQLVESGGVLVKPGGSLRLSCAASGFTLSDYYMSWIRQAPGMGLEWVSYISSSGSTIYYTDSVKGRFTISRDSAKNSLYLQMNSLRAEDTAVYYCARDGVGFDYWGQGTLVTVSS VL: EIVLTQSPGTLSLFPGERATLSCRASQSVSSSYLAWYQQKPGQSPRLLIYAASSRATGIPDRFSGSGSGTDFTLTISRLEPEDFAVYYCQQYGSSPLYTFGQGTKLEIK: 60200
ZY0EOB-F05 human IgG1 (antibody, V domains shown) VH: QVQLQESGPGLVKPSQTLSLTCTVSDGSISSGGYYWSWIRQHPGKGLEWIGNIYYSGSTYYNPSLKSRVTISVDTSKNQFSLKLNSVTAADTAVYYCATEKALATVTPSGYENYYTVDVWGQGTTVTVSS VL: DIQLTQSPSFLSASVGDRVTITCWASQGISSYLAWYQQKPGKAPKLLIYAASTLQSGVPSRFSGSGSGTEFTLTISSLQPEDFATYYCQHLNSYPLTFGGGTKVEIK: 24900

For each of the binders below, note its kon.
1. ZY0EPQ-E02 human IgG1 (antibody, V domains shown) VH: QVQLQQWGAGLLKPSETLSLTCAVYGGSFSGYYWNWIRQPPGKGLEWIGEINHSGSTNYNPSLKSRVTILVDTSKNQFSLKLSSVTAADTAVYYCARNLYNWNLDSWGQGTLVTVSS VL: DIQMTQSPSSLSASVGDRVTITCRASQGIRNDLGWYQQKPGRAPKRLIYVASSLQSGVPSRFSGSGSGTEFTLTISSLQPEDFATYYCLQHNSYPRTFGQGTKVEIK
2. ZY0EO5-E07 human IgG1 (antibody, V domains shown, also called ZY0E05-E07; E05-E07) VH: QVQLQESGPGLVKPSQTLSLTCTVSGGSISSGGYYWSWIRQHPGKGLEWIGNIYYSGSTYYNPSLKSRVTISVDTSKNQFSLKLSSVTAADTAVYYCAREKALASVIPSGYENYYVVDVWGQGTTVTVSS VL: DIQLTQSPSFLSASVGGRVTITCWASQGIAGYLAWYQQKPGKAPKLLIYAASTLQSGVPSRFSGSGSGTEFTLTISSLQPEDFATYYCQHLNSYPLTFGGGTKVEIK

Given back:
1: 100000; 2: 17900
